Record form. Attribute: IC50. Fill in for each entry.
Test target: KRAS G12S (Homo sapiens (Human), UniProt P01116+P62937, G12S)
Sequence (P01116 other isoform, or with tags, fused parts or gaps G12S, one chain of several): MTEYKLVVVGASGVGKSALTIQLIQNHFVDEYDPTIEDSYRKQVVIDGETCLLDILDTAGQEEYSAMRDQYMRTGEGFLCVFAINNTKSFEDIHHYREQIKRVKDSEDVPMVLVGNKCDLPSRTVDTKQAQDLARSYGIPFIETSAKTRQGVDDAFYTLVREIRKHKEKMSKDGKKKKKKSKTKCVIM
Assay remarks: Ras-Raf disruption/FRET/MOA assay (BRAF RBD, Cyclophilin A)
Format: biochemical
Experimental conditions: read-out: KRAS G12S FRET IC50

Exercise: Which IC50 value is on record for CCn1c(-c2cccnc2[C@H](C)OC)c2c3cc(ccc31)-c1cc(O)cc(c1)C[C@H](NC(=O)[C@H](C(C)C)N(C)C(=O)[C@H]1CCCC[C@H]1N)C(=O)N1CCC[C@H](N1)C(=O)OCC(C)(C)C2 ?
Solution: 0.01 to 0.1 µM

Exercise: // IC50 lookup, key: CCn1c(-c2cccnc2[C@H](C)OC)c2c3cc(ccc31)-c1csc(n1)C[C@H](NC(=O)[C@H](C(C)C)N(C)C(=O)N1CC(OC(F)(F)F)C1)C(=O)N1CCC[C@H](N1)C(=O)OCC(C)(C)C2
Solution: 0.1 to 1 µM

Exercise: What value of measured IC50 is listed for CCn1c(-c2cccnc2[C@H](C)OC)c2c3cc(ccc31)-c1csc(n1)C[C@H](NC(=O)[C@H](C(C)C)N(C)C(=O)N1CC(N3CCC3)C1)C(=O)N1CCC[C@H](N1)C(=O)OCC(C)(C)C2 ?
Solution: 0.1 to 1 µM

Exercise: Any idea what its IC50 is? The molecule is CCn1c(-c2cccnc2[C@H](C)OC)c2c3cc(ccc31)-c1csc(n1)C[C@H](NC(=O)[C@H](C(C)C)N(C)C(=O)N1CCC13CCS(=O)(=O)CC3)C(=O)N1CCC[C@H](N1)C(=O)OCC(C)(C)C2
Solution: 0.1 to 1 µM

* * *

Please respond with reported IC50 for every item in the list.
Test target: K-Ras G12C(GMP-PNP) binding to BRAF RBD (Homo sapiens (Human), UniProt P01116+P62937, G12C)
Sequence (P01116 other isoform, or with tags, fused parts or gaps G12C): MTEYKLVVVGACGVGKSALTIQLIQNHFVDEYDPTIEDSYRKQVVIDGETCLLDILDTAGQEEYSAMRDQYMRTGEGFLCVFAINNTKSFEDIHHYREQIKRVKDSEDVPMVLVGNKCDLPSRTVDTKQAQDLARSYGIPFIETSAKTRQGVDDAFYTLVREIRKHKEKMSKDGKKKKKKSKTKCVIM
Sequence (P62937 whole entry): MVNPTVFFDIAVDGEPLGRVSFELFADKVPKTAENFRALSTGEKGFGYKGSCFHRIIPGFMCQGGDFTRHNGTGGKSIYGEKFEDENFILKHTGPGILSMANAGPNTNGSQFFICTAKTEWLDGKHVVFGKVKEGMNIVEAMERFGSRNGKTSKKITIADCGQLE
Assay remarks: Disruption of BRAF RBD interaction with K-Ras (FRET / MOA assay), K-Ras G12C
Type: biochemical
Experimental conditions: read-out: KRAS G12C FRET IC50

Exercise: Query: IC50; subject: CCn1c(-c2cccnc2[C@H](C)OC)c2c3cc(ccc31)-c1cc(O)cc(c1)C[C@H](NC(=O)[C@H](C(C)C)N(C)C(=O)[C@H]1CCN(C3CC3)C1)C(=O)N1CCC[C@H](N1)C(=O)OCC(C)(C)C2 [Compound A175]
Solution: < 10 nM

Exercise: Can you look up the measured IC50 of CCn1c(-c2cccnc2[C@H](C)OC)c2c3cc(ccc31)-c1csc(n1)C[C@H](NC(=O)[C@H](C(C)C)N(C)C(=O)[C@H]1CCN(C(=O)CN)C1)C(=O)N1CCC[C@H](N1)C(=O)OCC(C)(C)C2 [Compound A106] for me?
Solution: 1000 to 10000 nM

* * *

Test target: KRAS G12V (Homo sapiens (Human), UniProt P01116+P62937, G12V)
Sequence (P01116 other isoform, or with tags, fused parts or gaps G12V, one chain of several): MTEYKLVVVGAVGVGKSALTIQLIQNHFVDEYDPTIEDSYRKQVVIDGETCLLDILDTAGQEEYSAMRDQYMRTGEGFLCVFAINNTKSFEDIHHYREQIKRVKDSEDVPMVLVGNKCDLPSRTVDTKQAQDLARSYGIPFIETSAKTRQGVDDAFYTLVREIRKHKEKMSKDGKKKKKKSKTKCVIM
Assay remarks: Ras-Raf disruption/FRET/MOA assay (BRAF RBD, Cyclophilin A)
Assay type: biochemical
Experimental conditions: read-out: KRAS G12V FRET IC50
pIC50: −log10 of the molar value.
Observable: pIC50

Exercise: GET /values?readout=pIC50&item= CCn1c(-c2cccnc2[C@H](C)OC)c2c3cc(ccc31)-c1csc(n1)C[C@H](NC(=O)[C@H](C(C)C)N(C)C(=O)N1CCOCC13COC3)C(=O)N1CCC[C@H](N1)C(=O)OCC(C)(C)C2 [Compound A474]
Solution: 6.00 to 7.00

Exercise: Consider the molecule CCn1c(-c2cccnc2[C@H](C)OC)c2c3cc(ccc31)-c1cc(O)cc(c1)C[C@H](NC(=O)[C@H](C(C)C)N(C)C(=O)C1CCC1)C(=O)N1CCC[C@H](N1)C(=O)OCC(C)(C)C2 [Compound A218] and give its measured pIC50.
Solution: 7.00 to 8.00

Exercise: Fill in the blank: the reported pIC50 of CCn1c(-c2cccnc2[C@H](C)OC)c2c3cc(ccc31)-c1csc(n1)C[C@H](NC(=O)[C@H](C(C)C)N1CCCN(C)C1=O)C(=O)N1CCC[C@H](N1)C(=O)OCC(C)(C)C2 [Compound A317] is ____.
Solution: 5.00 to 6.00

Exercise: Quick one: pIC50 of CCn1c(-c2cccnc2[C@H](C)OC)c2c3cc(ccc31)-c1csc(n1)C[C@H](NC(=O)[C@H](C(C)C)N(C)C(=O)N(C)C1COC1)C(=O)N1CCC[C@H](N1)C(=O)OCC(C)(C)C2 [Compound A334] ?
Solution: 6.00 to 7.00

Exercise: Field request: pIC50 | item: CCn1c(-c2cccnc2[C@H](C)OC)c2c3cc(ccc31)-c1csc(n1)C[C@H](NC(=O)[C@H](C(C)C)N(C)C(=O)N1CC(C(C)(C)O)C1)C(=O)N1CCC[C@H](N1)C(=O)OCC(C)(C)C2 [Compound A289]
Solution: 6.00 to 7.00
